- Tested on: antibody in serum immobilized on goat anti-rabbit second antibody coated tubes
- procedureSummary: Enzyme immunoassay (EIA) with HRP competitor or Hapten I conjugates, Aroclor 1248 analyte (Method D)
- Type: binding
- measurementSetup: assay solution concentration of Aroclor 1248 producing 50% reduction in assay control signal; HRP conjugate of the listed competitor
measure: Assay Response (I50) (ppb)
Response body: numeric value in ppb, unit text excluded.

Query: Recorded Assay Response (I50) of O=C(O)CCCCc1cc(Cl)ccc1Cl [Competitor 11] , please.
Result: 18

Query: What value of measured Assay Response (I50) is listed for O=C(O)CCCC(=O)c1ccc(Cl)c(Cl)c1 [Competitor 12] ?
Result: 23

Query: Looking for the measured Assay Response (I50) of O=C(O)CCCC(=O)Nc1ccc(Cl)c(Cl)c1 [Competitor 13] , can you help?
Result: 2000
